Record type: Ki measurement. Applies to: HDAC1 (Homo sapiens)
Non-standard residues stand in square brackets, D forms with d. Residues, ends and D or L forms follow the SMILES beside them. *: point of attachment. Asu = N[C@@H](CCCCCC(=O)O)C(=O)O; NHOH = ON*
Measurement label: Ki (nM)

INSERT INTO measurements (compound, experimental_system, measurement_units, reported) VALUES
  ('CC(=O)N[C@@H](C)C(=O)N[C@H](C(=O)NCC(=O)NCC(=O)N[C@H](C(=O)N[C@@H](CCCCCC(=O)NO)C(=O)N[C@@H](CCCCN)C(=O)N1CCC[C@H]1C(=O)N[C@@H](Cc1c[nH]cn1)C(=O)N[C@@H](CCCNC(=N)N)C(=O)N[C@@H](Cc1ccc(O)cc1)C(=O)N[C@@H](CCCNC(=N)N)C(=O)N1CCC[C@H]1C(=O)NCC(=O)N[C@H](C(=O)N[C@H](C(=O)N[C@@H](Cc1c[nH]c2ccccc12)C(N)=O)C(C)C)[C@@H](C)O)C(C)C)[C@@H](C)O [15a] (Ac-ATGGV[Asu](NHOH)KPHRYRPGTVW-NH2)', 'HDAC1 (Homo sapiens)', 'nM', 70),
  ('CC(=O)N[C@@H](CC(C)C)C(=O)NCC(=O)N[C@@H](CCCCN)C(=O)NCC(=O)NCC(=O)N[C@@H](C)C(=O)N[C@@H](CCCCCC(=O)NO)C(=O)N[C@@H](CCCNC(=N)N)C(=O)N[C@@H](Cc1c[nH]cn1)C(=O)N[C@@H](CCCNC(=N)N)C(=O)N[C@@H](CCCCN)C(=O)N[C@H](C(=O)N[C@@H](CC(C)C)C(=O)N[C@@H](CCCNC(=N)N)C(=O)N[C@@H](CC(=O)O)C(=O)N[C@@H](CC(N)=O)C(=O)N[C@@H](Cc1c[nH]c2ccccc12)C(N)=O)C(C)C [16a] (Ac-LGKGGA[Asu](NHOH)RHRKVLRDNW-NH2)', 'HDAC1 (Homo sapiens)', 'nM', 15.7);

Cited source: paper PMC7782793
